- System: SF-295
- measurement-notes: NCI tumour cell line growth inhibition, 48 h
Activity calls are given as the source filed them. Rule as the data show it: active = GI50 up to about 1.1 µM and inactive = higher.
GI50 values, listed per item

For orientation, consider the following solved cases.
molecule=CCCCCNC1=CC(=O)c2ccccc2C1=O result="26.3 µM (inactive)"
molecule=COc1cc(O)c(C(=O)/C=C/c2ccc(O)cc2)cc1Oc1ccc(/C=C/C(=O)c2ccc(O)cc2O)cc1 result="10.1 µM (inactive)"
molecule="CCOC(=O)Cc1nc2c(N)ncnc2n1C1OC(COC(C)=O)C(OC(C)=O)C1OC(C)=O (stereo not given)" result="> 100 µM (inactive)"
molecule=Cc1ccc(-c2c(C#N)c(-c3ccccc3)n(NS(=O)(=O)c3ccccc3)c(=O)c2C#N)cc1 result="60.7 µM (inactive)"

Please turn your attention to the following entry.
Problem: Bench note: what GI50 did c1ccc(NN/N=N/c2ccc(-c3nc4ccccc4[nH]3)cc2)cc1 show?
Solution: 25.6 µM (inactive)

Provenance of the data: ChEMBL document CHEMBL1201862
